Tested on: Saccharomyces cerevisiae
experimental.protocol: protein stability index of tFT-peptide fusion in wild type (PSI (0-1 scale)); higher = more stable (slower turnover)
protocol.conditions: genetic background: wild type
quantity.kind: protein stability index
Keep the answer to the number alone.

Query: Recall the reported protein stability index of "CLVSLPILLFSR" on Saccharomyces cerevisiae and write it down.
Reply: 0.391

Query: Write down measured protein stability index (Saccharomyces cerevisiae) for this sequence. "RVTRLDAQYFRI"
Reply: 0.668

Query: Would you please give the reported protein stability index of "FSMSWTFRYWVN" with Saccharomyces cerevisiae?
Reply: 0.0567

Query: Report protein stability index under test system Saccharomyces cerevisiae for "VRGAVGGWRLHG" .
Reply: 0.226

Query: State recorded protein stability index with Saccharomyces cerevisiae, entry "RLIQPLPVQDLN" , no comment.
Reply: 0.6

Query: With Saccharomyces cerevisiae as the test system, provide measured protein stability index for this sequence: "PSLAASFWRAVG"
Reply: 0.158

Query: Send back Saccharomyces cerevisiae protein stability index of "FSMRWNFRYWVN" only.
Reply: 0.0584

Query: Please report protein stability index with Saccharomyces cerevisiae for item "CTSCGYKFRTNA" .
Reply: 0.266

Query: Under Saccharomyces cerevisiae, report protein stability index for "LVVYLSCVACINH"
Reply: 0.0236

Query: Supply protein stability index measured with Saccharomyces cerevisiae for "KKHKKTQKQKIN" .
Reply: 0.0737

Query: For Saccharomyces cerevisiae, give the measured protein stability index of the entry "GLYMCSVGCWFRM"
Reply: 0.154

Query: Please tell me the measured protein stability index for "LKVYLSCVACIN" ; system: Saccharomyces cerevisiae.
Reply: 0.0444

Query: State recorded protein stability index with Saccharomyces cerevisiae, entry "CTSCGYKFRRNN" , no comment.
Reply: 0.49

Query: # lookup: Saccharomyces cerevisiae protein stability index, key = "VRGAVGGWRLVGT"
Reply: 0.678

Query: Lab note: record protein stability index of "RLIQPLPVEFLN" tested on Saccharomyces cerevisiae.
Reply: 0.0996

Query: Find the measured protein stability index of "AGWRVGLWRGAS" with Saccharomyces cerevisiae as test system.
Reply: 0.424

Query: Lab note: record protein stability index of "ARWRVGLWRGASM" tested on Saccharomyces cerevisiae.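 Further: PSI derived as read-weighted mean over the 8 sorting bins, only variants exceeding 10 total reads kept, mCherry placed adjacent to the peptide and sfGFP distal.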
Reply: 0.651

Query: # assay system Saccharomyces cerevisiae: give protein stability index of "RLIQPLPVSFLN"
Reply: 0.262

Query: Give reported protein stability index for "PSLAASFWRVPG" (Saccharomyces cerevisiae)
Reply: 0.677

Taken from the supplement of paper PMC10724198.
